measuredTarget: human metabotropic Glutamate 4 receptor (mGluR4) (Homo sapiens (Human), UniProt Q14833)
Sequence (Q14833 33-912): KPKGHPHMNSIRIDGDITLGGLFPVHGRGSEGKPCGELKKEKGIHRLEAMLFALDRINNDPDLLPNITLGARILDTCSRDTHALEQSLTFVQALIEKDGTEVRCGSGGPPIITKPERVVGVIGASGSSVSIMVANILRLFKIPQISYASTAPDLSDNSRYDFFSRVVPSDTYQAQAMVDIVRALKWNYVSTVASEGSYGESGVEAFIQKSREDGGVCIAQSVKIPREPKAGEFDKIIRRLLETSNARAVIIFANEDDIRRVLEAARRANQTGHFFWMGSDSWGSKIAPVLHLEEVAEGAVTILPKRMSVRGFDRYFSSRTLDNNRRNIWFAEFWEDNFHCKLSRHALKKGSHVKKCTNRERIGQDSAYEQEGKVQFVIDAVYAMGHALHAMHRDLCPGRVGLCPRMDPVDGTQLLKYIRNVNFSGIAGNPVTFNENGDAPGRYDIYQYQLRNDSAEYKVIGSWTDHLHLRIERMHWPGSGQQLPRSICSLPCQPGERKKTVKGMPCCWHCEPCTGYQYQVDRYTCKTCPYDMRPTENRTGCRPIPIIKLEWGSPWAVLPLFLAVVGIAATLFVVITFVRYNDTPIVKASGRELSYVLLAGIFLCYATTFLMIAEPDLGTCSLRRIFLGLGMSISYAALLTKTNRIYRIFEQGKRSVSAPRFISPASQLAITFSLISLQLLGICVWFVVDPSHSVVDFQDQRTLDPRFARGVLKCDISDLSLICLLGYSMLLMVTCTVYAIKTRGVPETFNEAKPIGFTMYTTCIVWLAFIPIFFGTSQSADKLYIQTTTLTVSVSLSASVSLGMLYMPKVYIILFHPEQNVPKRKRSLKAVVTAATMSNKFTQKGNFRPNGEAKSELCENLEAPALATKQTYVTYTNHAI
testDetails: Assay A: in vitro testing of mGluR4 potency (glutamate-induced cAMP lowering, HTRF cAMP)
conditionDescription: HEK293 cells overexpressing human mGluR4; 10 uM L-glutamic acid, 1 uM forskolin; compounds of the present invention
pIC50: −log10 of the molar value.
Measured pIC50 by item

>  <smilesText>
Cc1cnc(C(=O)N[C@H](c2nc3c(Cl)c(F)ccc3n2C)C2CC2)cn1

>  <pIC50>
7.89

$$$$
>  <smilesText>
Cc1cnc(C(=O)N[C@H](c2nc3cc(C(F)(F)F)ccc3n2CC(F)F)[C@H]2CCOC2)cn1

>  <pIC50>
8.10

$$$$
>  <smilesText>
Cc1cnc(C(=O)N[C@H](c2nc3cc(C)c(F)cc3n2C)C2CC2)cn1

>  <pIC50>
7.82

$$$$
>  <smilesText>
Cc1cnc(C(=O)N[C@H](c2nc3cc(OC(F)(F)F)ccc3n2C2CC2)C2CC2)cn1

>  <pIC50>
8.05

$$$$
